Value source: PubChem BioAssay AID1963856

- Test system: LG0567-F671-PDC KRAS tumor spheroid viability;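 also: drug exposure lasted seven days after spheroids formed for three days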
- Test Name: Anticancer human tumor LG0567-F671-PDC patient-derived lung adenocarcinoma cell line growth inhibition [KRAS2]
- Condition Details: second compound 3.16 µM; first compound 1 µM; hits give low values; spheroids with HUVEC and MSC
Criterion: viability, T/C strictly less than 30%. Met: t. Not met: f.

Given the entry CCNC(=O)CC1N=C(c2ccc(Cl)cc2)c2cc(OC)ccc2-n2c(C)nnc21 (stereo unspecified) + CC1OCC2(CCN(c3cnc(Sc4ccnc(N)c4Cl)c(N)n3)CC2)C1N , would its reported viability, T/C be below 30%? t

Lookup Cn1nccc1Nc1nccc(-c2cc3c(s2)C(C)(C)N(CCN2CCOCC2)C3=O)n1 + CNCc1ccccc1-c1csc(C(C)Nc2nc(C)nc3cc(OC)c(OC)cc23)c1 f

Item: CC1COCCN1c1cc(-c2ccnn2C)c2ccnc(-c3ccn[nH]3)c2n1 (stereo unspecified) + CNCc1ccccc1-c1csc(C(C)Nc2nc(C)nc3cc(OC)c(OC)cc23)c1 f

Next, consider the following molecule.
Determine if CCN1CCN(Cc2ccc(Nc3ncc(F)c(-c4cc(F)c5nc(C)n(C(C)C)c5c4)n3)nc2)CC1 + CC1OCC2(CCN(c3cnc(Sc4ccnc(N)c4Cl)c(N)n3)CC2)C1N shows viability, T/C strictly lower than 30%. t
